The reported measurements were obtained from patent US8071611B2.

- experimental_target: cloned human μ opioid receptor (Homo sapiens)
- Sequence (P35372 whole entry): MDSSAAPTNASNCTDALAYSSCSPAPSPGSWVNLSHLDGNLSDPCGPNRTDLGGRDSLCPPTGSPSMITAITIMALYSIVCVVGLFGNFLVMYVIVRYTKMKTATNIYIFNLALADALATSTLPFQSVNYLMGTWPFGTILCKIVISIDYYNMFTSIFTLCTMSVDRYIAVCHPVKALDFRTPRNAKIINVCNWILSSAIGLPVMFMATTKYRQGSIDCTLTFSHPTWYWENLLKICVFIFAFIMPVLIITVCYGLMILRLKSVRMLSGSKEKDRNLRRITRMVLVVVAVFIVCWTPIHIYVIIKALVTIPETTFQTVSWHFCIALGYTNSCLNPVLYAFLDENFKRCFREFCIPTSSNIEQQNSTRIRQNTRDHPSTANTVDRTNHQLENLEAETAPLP
pKi: −log10 of the molar value.
Each item that follows carries a reported pKi.
value_type: pKi

> print(dat)
                            compound.string  experimental.value
1  CCN(CC)C(=O)c1ccc(C2=CC3(CCNCC3)Oc3ccccc32)cc1                6.01
2  CCN(CC)C(=O)c1ccc(C2=CC3(CCNCC3)Oc3ccc(F)cc32)cc1                5.35
3  CCCN(CC1CC1)C(=O)c1ccc(C2=CC3(CCNCC3)Oc3ccccc32)cc1                5.60

----------
Each item that follows carries a reported Ki.
- experimental_target: cloned human δ opioid receptor (Homo sapiens)
- Construct: expressed in transfected cells; host or cells: CHO cells (membranes)
- Sequence (P41143 whole entry): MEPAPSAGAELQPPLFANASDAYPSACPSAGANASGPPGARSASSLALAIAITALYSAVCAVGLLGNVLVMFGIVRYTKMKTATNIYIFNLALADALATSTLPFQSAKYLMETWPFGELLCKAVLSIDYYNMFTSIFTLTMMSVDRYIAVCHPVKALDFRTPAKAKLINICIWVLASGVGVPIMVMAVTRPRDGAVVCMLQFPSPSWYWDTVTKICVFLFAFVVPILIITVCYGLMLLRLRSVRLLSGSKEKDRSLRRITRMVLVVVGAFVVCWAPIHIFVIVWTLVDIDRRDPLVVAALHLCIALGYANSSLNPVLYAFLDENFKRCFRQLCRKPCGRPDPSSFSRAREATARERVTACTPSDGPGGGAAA
- test_protocol: Receptor binding: inhibition of [3H]diprenorphine binding to cloned human δ opioid receptor
- assay_conditions: [3H]diprenorphine displacement, cloned human δ opioid receptor; read-out: Ki(δ)
value_type: Ki (nM)

> print(dat)
                            compound.string  value.type  experimental.value
1  CCN(CC)C(=O)c1ccc(C2=CC3(CCNCC3)Oc3ccc(O)cc32)cc1.Cl          Ki                0.36
2  C1=C(c2ccc(-c3nn[nH]n3)cc2)c2ccccc2OC12CCNCC2.O=C(O)C(F)(F)F          Ki                 2.7

----------
Each item that follows carries a reported log10(Ki).
- experimental_target: cloned human δ opioid receptor (Homo sapiens)
- Construct: expressed in transfected cells; host or cells: CHO cells (membranes)
- test_protocol: Receptor binding: inhibition of [3H]diprenorphine binding to cloned human δ opioid receptor
value_type: log10(Ki) (log10 of the value in nM)

> print(dat)
                                   molecule  experimental.value
1  CCN(CC)C(=O)c1ccc(C2=CC3(CCNCC3)Oc3ccc(F)cc32)cc1 [Example Z2]                0.41
2  CS(=O)(=O)c1ccc(C2=CC3(CCNCC3)Oc3ccccc32)cc1 [Example Z13]                1.45
3  O=C(O)CCCn1nnc(-c2ccc(C3=CC4(CCNCC4)Oc4ccccc43)cc2)n1 [Example Z11]                0.90
4  C1=C(c2cccnc2)c2ccccc2OC12CCNCC2 [Example Z12]                1.73
5  CCN(CC)C(=O)c1ccc(C2=CC3(CCN(C)CC3)Oc3ccccc32)cc1 [Example Z5]                0.76
6  CCCN(CC1CC1)C(=O)c1ccc(C2=CC3(CCNCC3)Oc3ccccc32)cc1 [Example Z7]                0.23
7  CCN(CC)C(=O)c1ccc(C2=CC3(CC4CCC(C3)N4)Oc3ccccc32)cc1 (centres unmarked) [Example Z14]                1.41
8  O=C(O)C1CCN(C(=O)c2ccc(C3=CC4(CCNCC4)Oc4ccccc43)cc2)CC1 [Example Z9]                1.18

----------
- experimental_target: cloned human κ opioid receptor (Homo sapiens)
- Construct: expressed in transfected cells; host or cells: CHO cells (membranes)
- Sequence (P41145 whole entry): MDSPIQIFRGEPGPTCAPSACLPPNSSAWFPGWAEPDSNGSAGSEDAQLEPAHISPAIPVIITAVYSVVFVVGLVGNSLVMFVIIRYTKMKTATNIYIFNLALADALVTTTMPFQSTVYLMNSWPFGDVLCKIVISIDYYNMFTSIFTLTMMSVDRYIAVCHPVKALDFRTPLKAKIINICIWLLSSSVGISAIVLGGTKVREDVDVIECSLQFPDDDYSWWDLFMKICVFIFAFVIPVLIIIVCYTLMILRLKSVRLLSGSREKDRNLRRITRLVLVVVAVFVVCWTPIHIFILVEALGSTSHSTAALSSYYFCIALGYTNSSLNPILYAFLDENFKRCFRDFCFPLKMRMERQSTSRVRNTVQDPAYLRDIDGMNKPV
- test_protocol: Receptor binding: inhibition of [3H]diprenorphine binding to cloned human κ opioid receptor
- assay_conditions: [3H]diprenorphine displacement, cloned human κ opioid receptor; read-out: Ki(κ)
value_type: Ki (nM)

> print(dat)
                            compound.string  unit.string  experimental.value
1  CCN(CC)C(=O)c1ccc(C2=CC3(CCNCC3)Oc3ccc(O)cc32)cc1.Cl           nM                 790

----------
- experimental_target: cloned human κ opioid receptor (Homo sapiens)
- Construct: expressed in transfected cells; host or cells: CHO cells (membranes)
- test_protocol: Receptor binding: inhibition of [3H]diprenorphine binding to cloned human κ opioid receptor
- assay_conditions: read-out: % Inhibition at 10 μM (κ)
value_type: inhibition at 10 µM

> print(dat)
                                   compound                       experimental.target  experimental.value
1  O=C(O)C1CCN(C(=O)c2ccc(C3=CC4(CCNCC4)Oc4ccccc43)cc2)CC1  cloned human κ opioid receptor (Homo sapiens)                 24%
2  CS(=O)(=O)c1ccc(C2=CC3(CCNCC3)Oc3ccccc32)cc1  cloned human κ opioid receptor (Homo sapiens)                 17%
3          C1=C(c2cccnc2)c2ccccc2OC12CCNCC2  cloned human κ opioid receptor (Homo sapiens)                 44%
4  CCN(CC)C(=O)c1ccc(C2=CC3(CCNCC3)Oc3ccc(F)cc32)cc1  cloned human κ opioid receptor (Homo sapiens)                 17%
5  CCN(CC)C(=O)c1ccc(C2=CC3(CCNCC3)Oc3ccccc32)cc1  cloned human κ opioid receptor (Homo sapiens)                 32%
6  CCCN(CC1CC1)C(=O)c1ccc(C2=CC3(CCNCC3)Oc3ccccc32)cc1  cloned human κ opioid receptor (Homo sapiens)                 51%
7  CCN(CC)C(=O)c1ccc(C2=CC3(CC4CCC(C3)N4)Oc3ccccc32)cc1 (stereo not drawn)  cloned human κ opioid receptor (Homo sapiens)                  8%
8  CCN(CC)C(=O)c1ccc(C2=CC3(CCN(C)CC3)Oc3ccccc32)cc1  cloned human κ opioid receptor (Homo sapiens)                 23%
9  O=C(O)CCCn1nnc(-c2ccc(C3=CC4(CCNCC4)Oc4ccccc43)cc2)n1  cloned human κ opioid receptor (Homo sapiens)               -3.3%
